Hey, just so you know, these numbers are from patent US20090042785A1.

# assayedTarget: T1, human CTLA-4-Fc (Chimerigen) (human, UniProt P16410 36-161; P01857 99-330 = IgG part, limits assumed)
# T1 construct: extracellular domain;domain: Fc portion; Bought protein; also called hCTLA-4-Fc; huCTLA-4-Ig
# T1 sequence (P16410 other isoform, or with tags, fused parts or gaps mutant limits assumed): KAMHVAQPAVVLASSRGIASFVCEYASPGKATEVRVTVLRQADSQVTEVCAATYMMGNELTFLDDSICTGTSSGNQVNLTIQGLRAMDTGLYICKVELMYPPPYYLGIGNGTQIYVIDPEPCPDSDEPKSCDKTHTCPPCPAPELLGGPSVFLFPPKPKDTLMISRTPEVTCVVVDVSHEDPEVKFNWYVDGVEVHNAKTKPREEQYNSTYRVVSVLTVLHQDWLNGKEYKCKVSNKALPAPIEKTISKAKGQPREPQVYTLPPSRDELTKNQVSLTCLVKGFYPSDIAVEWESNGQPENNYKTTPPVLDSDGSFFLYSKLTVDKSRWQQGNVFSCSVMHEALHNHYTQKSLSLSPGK
# experimentSummary: SPR, Fc fusion captured via anti-human IgG Fc
pKd: −log10 of the molar value.
assayMetric: pKd

[
  {
    "binder": "hNGAL mutein S109.5-L04 (designed binder) QDSTSDLIPAPPLSKVPLQQNFQDNQFHGKWYVVGLAGNRILRDDRHPMNMYATIYELKEDKSYNVTSVIFPHKKCEYTIATFVPGSQPGEFTLGNIKSYGDKTSYLVRVVSTNYNQHATVFFKLAEDNAEFFAITIYGRTKELASELKENFIRFSKSLGLPENHIVFPVPIDQCIDGSAWSHPQF",
    "experimentalValue": 7.54
  },
  {
    "binder": "hNGAL mutein S106.3-K20 (designed binder) QDSTSDLIPAPPLSKVPLQQNFQDNQFHGKWYVVGLAGNRILRDDQHPMNMYATIYELKEDKSYNVTSVIFPHKKCEYTIATFVPGSQPGEFTLGNIKSYGDKTSYLVRVVSTNYNQHAVVFFQLVEDNAGFFAITIYGRTKELASELKENFIRFSKSLGLPENHIVFPVPIDQCIDGSAWSHPQF",
    "experimentalValue": 7.54
  },
  {
    "binder": "hNGAL mutein F92.1-J08 (designed binder, also called CTLA-4-J08) QDSTSDLIPAPPLSKVPLQQNFQDNQFHGKWYVVGLAGNRILRDDQHPMNMYATIYELKEDKSYNVTSVIFPHKKCEYTIATFVPGSQPGEFTLGNIKSYGDKTSYLVRVVSTNYNQYAVVFFKLAEDNAEFFAITIYGRTKELASELKENFIRFSKSLGLPENHIVFPVPIDQCIDGSAWSHPQF",
    "experimentalValue": 7.89
  }
]
